// growth inhibition lookup, one value per entry
- testDetails: NCI Yeast Anticancer Drug Screen. Data for the rad50 strain (AID 155);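 further: 0% = growth of vehicle-only cultures of the same strain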
- reportedConditions: S. cerevisiae rad50 strain growth inhibition; at 11.0 µM; stronger effect = higher value
The panel holds about 79,000 compounds, 15% with a hit somewhere; the sample as a whole holds those more often.
Reply numerically in %, unit not repeated.

Consider the worked cases shown below.
{"compound": "CC1=CC(=C(c2ccc(N)c(C)c2)c2ccc(N)c(C)c2)C=CC1=N", "unitsSymbol": "%", "measValue": 18}
{"compound": "CC(C)(CN1CCCCC1)C(=O)/C=C/c1c(Cl)cccc1Cl", "unitsSymbol": "%", "measValue": 67}
{"compound": "CCCCCCC1OCC(O)C(OCCCC)O1 (configuration not stated)", "unitsSymbol": "%", "measValue": -4}
{"compound": "COC(=O)C(Cl)(Cl)N=Nc1c(Cl)cc(Cl)c(C)c1Cl", "unitsSymbol": "%", "measValue": 96}

Q) Look up growth inhibition for this compound: CCC(/C=C/c1ccccc1)=N\Nc1ccc(Cl)cc1
A) 12

Q) Look up growth inhibition for this compound: NC(=S)N1N=C2c3ccccc3CC[C@@H]2[C@@H]1c1ccccc1
A) -1

Q) Look up growth inhibition for this compound: COc1cc([N+](=O)[O-])c2ncccc2c1Br
A) 25

Q) Look up growth inhibition for this compound: O=C(Cc1ccccc1)NN1C(=O)C(Cl)C1c1cc(Br)cc(Br)c1O (configuration not stated)
A) 81

Q) Look up growth inhibition for this compound: CCCCCCCCCC(=O)N(CCC)CCC
A) -2

Q) Look up growth inhibition for this compound: NC(=S)N/N=C1\c2ccccc2CCC1CCC1(O)CCc2ccccc2C1=O (configuration not stated)
A) 49

Q) Look up growth inhibition for this compound: CN(C)CCNc1ccc2ncn3c4ccc(O)cc4c(=O)c1c23
A) -6

Q) Look up growth inhibition for this compound: CC(C)Cc1ncc(CCCN=C(N)N)[nH]c1=O
A) -21
